# key: entry, value: mortality (%) (500 ppm) Aphis
- Tested on: Aphis craccivoral
- PROCEDURE TEXT: Insecticidal activity against Aphis craccivoral by immersing (dipping aphids on bean sprout)
- Type: in vivo
- MEASUREMENT CONTEXT: 500 ppm; immersing (dipped 5 seconds); counted after 24 hours; 23° C.
Answer format: numeric, % implied, no suffix.

[
  {
    "COMPOUND": "CCC(C)OC1CCC([N+](=O)[O-])=C2N(CC3CCOC3)CCN21 (stereo not shown) [Compound 59]",
    "mortality (%) (500 ppm) Aphis": 2
  },
  {
    "COMPOUND": "CC(C)COC1CCC([N+](=O)[O-])=C2N(Cc3cnc(Cl)s3)CCCN21 (stereo not shown) [Compound 94]",
    "mortality (%) (500 ppm) Aphis": 8
  },
  {
    "COMPOUND": "CCOC1CCC([N+](=O)[O-])=C2N(CC3CCOC3)CCN21 (stereo not shown) [Compound 47]",
    "mortality (%) (500 ppm) Aphis": 45
  },
  {
    "COMPOUND": "O=[N+]([O-])C1=C2N(Cc3ccc(Cl)nc3)CCN2C(SC(C(F)(F)F)C(F)(F)F)CC1 (stereo not shown) [Compound 138]",
    "mortality (%) (500 ppm) Aphis": 45
  },
  {
    "COMPOUND": "CC1CC(O)N2CCN(CC3CCOC3)C2=C1[N+](=O)[O-] (stereo not shown) [Compound 68]",
    "mortality (%) (500 ppm) Aphis": 2
  }
]

Q. Any idea what its mortality (%) (500 ppm) Aphis is? The compound is O=C(OC1CCC([N+](=O)[O-])=C2N(Cc3ccc(Cl)nc3)CCN21)c1ccc(C(F)(F)F)cc1 (stereo not shown) [Compound 126]
A. 93

Q. # get_value(readout='mortality (%) (500 ppm) Aphis', item= CCCCOC1CCC([N+](=O)[O-])=C2N(CC3CCOC3)CCCN21 (stereo not shown) [Compound 107] )
A. 7
